test-system: Histone acetyltransferase p300 (Homo sapiens)
Sequence (Q09472 whole entry): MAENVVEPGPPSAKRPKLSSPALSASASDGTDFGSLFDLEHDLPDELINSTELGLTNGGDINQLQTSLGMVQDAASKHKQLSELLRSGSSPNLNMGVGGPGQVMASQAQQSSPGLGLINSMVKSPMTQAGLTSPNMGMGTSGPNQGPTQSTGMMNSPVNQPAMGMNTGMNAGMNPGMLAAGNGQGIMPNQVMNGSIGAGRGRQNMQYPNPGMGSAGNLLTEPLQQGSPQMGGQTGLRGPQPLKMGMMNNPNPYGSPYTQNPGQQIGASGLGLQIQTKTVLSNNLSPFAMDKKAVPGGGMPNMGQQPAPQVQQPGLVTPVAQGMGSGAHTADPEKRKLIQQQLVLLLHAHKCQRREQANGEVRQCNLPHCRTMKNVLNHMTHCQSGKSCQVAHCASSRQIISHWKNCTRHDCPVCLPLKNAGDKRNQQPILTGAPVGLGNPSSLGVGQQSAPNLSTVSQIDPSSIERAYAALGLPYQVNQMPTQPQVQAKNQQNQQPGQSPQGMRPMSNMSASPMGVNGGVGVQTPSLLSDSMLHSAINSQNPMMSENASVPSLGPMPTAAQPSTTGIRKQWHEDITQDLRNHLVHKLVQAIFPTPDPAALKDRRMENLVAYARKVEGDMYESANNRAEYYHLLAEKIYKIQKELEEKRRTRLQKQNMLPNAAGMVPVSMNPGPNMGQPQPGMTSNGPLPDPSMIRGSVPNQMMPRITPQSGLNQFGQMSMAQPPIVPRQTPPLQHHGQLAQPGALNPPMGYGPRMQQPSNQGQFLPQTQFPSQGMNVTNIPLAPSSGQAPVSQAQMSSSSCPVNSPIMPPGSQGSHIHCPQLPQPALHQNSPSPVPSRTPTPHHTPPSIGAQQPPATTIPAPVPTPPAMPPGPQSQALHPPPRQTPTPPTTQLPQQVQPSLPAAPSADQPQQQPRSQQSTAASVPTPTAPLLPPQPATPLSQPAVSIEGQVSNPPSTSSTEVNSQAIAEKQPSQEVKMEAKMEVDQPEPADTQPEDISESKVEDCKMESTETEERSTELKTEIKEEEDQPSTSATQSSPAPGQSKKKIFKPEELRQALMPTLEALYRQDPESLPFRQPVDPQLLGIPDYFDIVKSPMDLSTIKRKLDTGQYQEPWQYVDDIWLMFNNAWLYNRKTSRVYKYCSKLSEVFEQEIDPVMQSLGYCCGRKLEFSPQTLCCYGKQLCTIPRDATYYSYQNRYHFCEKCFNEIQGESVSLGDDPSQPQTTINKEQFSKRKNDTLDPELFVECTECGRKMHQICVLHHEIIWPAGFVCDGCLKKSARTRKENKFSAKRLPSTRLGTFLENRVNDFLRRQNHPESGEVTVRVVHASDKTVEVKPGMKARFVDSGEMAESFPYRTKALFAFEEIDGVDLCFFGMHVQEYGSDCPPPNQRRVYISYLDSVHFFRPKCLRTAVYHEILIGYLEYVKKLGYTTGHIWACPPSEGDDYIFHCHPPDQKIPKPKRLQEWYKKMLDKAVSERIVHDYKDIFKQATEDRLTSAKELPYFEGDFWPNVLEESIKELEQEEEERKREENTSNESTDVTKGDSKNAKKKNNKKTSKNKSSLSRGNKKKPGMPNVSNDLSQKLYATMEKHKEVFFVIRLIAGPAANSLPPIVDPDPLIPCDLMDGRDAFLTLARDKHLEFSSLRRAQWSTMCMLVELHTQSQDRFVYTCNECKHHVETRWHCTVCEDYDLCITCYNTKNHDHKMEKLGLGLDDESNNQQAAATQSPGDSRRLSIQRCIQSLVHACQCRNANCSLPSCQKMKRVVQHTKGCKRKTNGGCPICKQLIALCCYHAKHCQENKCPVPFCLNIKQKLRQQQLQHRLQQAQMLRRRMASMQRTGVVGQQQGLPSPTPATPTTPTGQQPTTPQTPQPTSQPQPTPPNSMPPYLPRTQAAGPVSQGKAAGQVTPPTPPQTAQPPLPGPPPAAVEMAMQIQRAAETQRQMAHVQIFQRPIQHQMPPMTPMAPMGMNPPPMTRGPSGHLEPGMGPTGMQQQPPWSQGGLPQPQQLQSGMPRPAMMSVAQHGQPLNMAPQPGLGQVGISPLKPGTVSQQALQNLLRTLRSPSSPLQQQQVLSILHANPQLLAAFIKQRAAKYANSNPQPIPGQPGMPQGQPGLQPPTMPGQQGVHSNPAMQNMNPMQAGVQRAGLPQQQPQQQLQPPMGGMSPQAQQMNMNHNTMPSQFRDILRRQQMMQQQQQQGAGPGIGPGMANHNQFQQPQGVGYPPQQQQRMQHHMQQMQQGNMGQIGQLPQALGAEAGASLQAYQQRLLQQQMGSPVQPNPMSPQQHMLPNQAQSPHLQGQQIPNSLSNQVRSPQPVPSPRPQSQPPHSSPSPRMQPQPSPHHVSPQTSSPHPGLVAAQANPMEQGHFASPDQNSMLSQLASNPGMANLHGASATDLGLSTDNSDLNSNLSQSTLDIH
assay: Induction of p300 degradation in human RS4-11 cells assessed as maximal degradation incubated for 4 hrs by Western blot assay relative to control
Assay type: cell-based
Reported Emax values for a set of compounds
# value in %; strip the unit string

Query: Specify Emax for CC(=O)N1CCc2c(c(-c3cccc4cc(-c5ccc(C(=O)NCCCCCCCCNc6cccc7c6C(=O)N(C6CCC(=O)NC6=O)C7=O)nc5)ncc34)nn2C2CCOCC2)C1 (configuration not stated) and stop.
Result: 97

Query: Specify Emax for CC(=O)N1CCc2c(c(-c3cccc4cc(-c5ccc(C(=O)NCCNc6ccc7c(c6)CN(C6CCC(=O)NC6=O)C7=O)nc5)ncc34)nn2C2CCOCC2)C1 (configuration not stated) and stop.
Result: 73

Query: Specify Emax for CC(=O)N1CCc2c(c(-c3cccc4cc(-c5ccc(C(=O)NC6CCN(c7ccc8c(c7)CN(C7CCC(=O)NC7=O)C8=O)CC6)nc5)ncc34)nn2C2CCOCC2)C1 (configuration not stated) and stop.
Result: 99

Query: Specify Emax for CC(=O)N1CCc2c(c(-c3cccc4cc(-c5ccc(C(=O)NC6CCN(c7ccc8c(c7)C(=O)N(C7CCC(=O)NC7=O)C8=O)CC6)nc5)ncc34)nn2C2CCOCC2)C1 (configuration not stated) and stop.
Result: 99

Query: Specify Emax for CC(=O)N1CCc2c(c(-c3cccc4cc(-c5ccc(C(=O)NCCCCCCNc6cccc7c6C(=O)N(C6CCC(=O)NC6=O)C7=O)nc5)ncc34)nn2C2CCOCC2)C1 (configuration not stated) and stop.
Result: 87

Query: Specify Emax for CC(=O)N1CCc2c(c(-c3cccc4cc(-c5ccc(C(=O)NCCCNc6cccc7c6C(=O)N(C6CCC(=O)NC6=O)C7=O)nc5)ncc34)nn2C2CCOCC2)C1 (configuration not stated) and stop.
Result: 90

Query: Specify Emax for CC(=O)N1CCc2c(c(-c3cccc4cc(-c5ccc(C(=O)N6CC7(CC(Nc8cccc9c8C(=O)N(C8CCC(=O)NC8=O)C9=O)C7)C6)nc5)ncc34)nn2C2CCOCC2)C1 (configuration not stated) and stop.
Result: 95

Cited source for all entries: ChEMBL document CHEMBL5338817
